- systemUnderTest: PIM1 serine/threonine kinase (Homo sapiens)
- measurementProtocol: PIM1 serine/threonine kinase inhibitory effect
- conditionContext: PIM1 serine/threonine kinase activity; ATP 40 μM; 30° C., 30 minutes
pIC50: −log10 of the molar value. Structures can show the parent of a compound that is named as a salt.
metric: pIC50

I. C[C@H](Nc1cc(-c2n[nH]c(=O)o2)ccc1C(F)(F)F)C1CC2(CNC2)C1 [Example 149, trifluoroacetate]
II. C[C@H](Nc1cc(-c2n[nH]c(=O)o2)ccc1C(F)(F)F)[C@H]1CC[C@H](NCC(F)(F)F)CC1 [Example 197, hydrochloride]
III. C[C@H](Nc1cc(-c2n[nH]c(=O)o2)ccc1C(F)(F)F)[C@H]1CC[C@@H](N)C1 [Example 199, hydrochloride]
IV. C[C@H](Nc1cc(-c2n[nH]c(=O)o2)cc(F)c1C(F)(F)F)[C@H]1CC[C@H](N)CC1 [Example 151, hydrochloride]
V. O=c1[nH]nc(-c2ccc(C(F)(F)F)c(N3CCC4(CCNCC4)CC3)c2)o1 [Example 15, hydrochloride]
Arrange these 5 compounds in increasing order of pIC50. # respond with the labels, arranged in the requested order II, V, I, III, IV
(II: 6.85, V: 7.82, I: 8.04, III: 8.41, IV: 8.74)

====

- systemUnderTest: PIM2 serine/threonine kinase (Homo sapiens, UniProt Q9P1W9)
- Sequence (Q9P1W9 whole entry): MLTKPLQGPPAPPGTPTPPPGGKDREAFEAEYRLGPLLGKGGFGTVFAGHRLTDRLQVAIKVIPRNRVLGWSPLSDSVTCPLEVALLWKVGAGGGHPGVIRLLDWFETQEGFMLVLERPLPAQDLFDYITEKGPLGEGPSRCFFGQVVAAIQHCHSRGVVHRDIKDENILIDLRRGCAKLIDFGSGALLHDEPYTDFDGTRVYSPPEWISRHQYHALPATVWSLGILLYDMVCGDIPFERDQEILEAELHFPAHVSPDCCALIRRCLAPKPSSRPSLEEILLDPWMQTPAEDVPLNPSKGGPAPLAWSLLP
- measurementProtocol: PIM2 serine/threonine kinase inhibitory effect
- conditionContext: PIM2 serine/threonine kinase activity; ATP 2 μM; 30° C., 30 minutes
pIC50: −log10 of the molar value. Structures can show the parent of a compound that is named as a salt.
metric: pIC50

Recorded pIC50, per entry:
Which pIC50 value is on record for O=c1[nH]nc(-c2ccc(C(F)(F)F)c(-c3cncc(N4CCNCC4)c3)c2)o1 [Example 25, dihydrochloride] ? 6.11

# iterate: CC(Nc1cc(-c2n[nH]c(=O)o2)ccc1C(F)(F)F)C1CCNCC1 (centres unmarked) [Example 52, hydrochloride] 7.72

# iterate: NCc1cccc(-c2cc(-c3n[nH]c(=O)o3)ccc2Cl)c1 [Example 18, hydrochloride] 6.66

A. N[C@H]1CC[C@H](CNc2cc(-c3n[nH]c(=O)o3)ccc2C(F)(F)F)CC1 [Example 55, hydrochloride]
B. N[C@H]1CC[C@H](CNc2cc(-c3n[nH]c(=O)o3)ccc2OC(F)(F)F)CC1 [Example 66, hydrochloride]
C. N[C@H]1CC[C@H](Nc2cc(-c3n[nH]c(=O)o3)ccc2C(F)(F)F)CC1 [Example 34, hydrochloride]
# rank by pIC50, ascending (min first) # respond with the labels, arranged in the requested order B, C, A
(B: 7.05, C: 7.60, A: 7.85)

====

- systemUnderTest: PIM1 serine/threonine kinase (Homo sapiens, UniProt P11309)
- Sequence (P11309 whole entry): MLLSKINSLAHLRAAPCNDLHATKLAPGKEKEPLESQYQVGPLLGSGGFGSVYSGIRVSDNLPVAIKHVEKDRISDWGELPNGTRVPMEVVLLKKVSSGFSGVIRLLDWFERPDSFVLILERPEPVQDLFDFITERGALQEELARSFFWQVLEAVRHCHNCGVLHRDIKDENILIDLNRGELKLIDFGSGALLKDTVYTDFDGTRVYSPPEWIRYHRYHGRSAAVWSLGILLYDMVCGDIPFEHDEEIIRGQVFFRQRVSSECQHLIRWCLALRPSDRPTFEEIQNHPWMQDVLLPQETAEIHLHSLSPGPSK
- measurementProtocol: PIM1 serine/threonine kinase inhibitory effect
- conditionContext: PIM1 serine/threonine kinase activity; ATP 40 μM; 30° C., 30 minutes
pIC50: −log10 of the molar value. Structures can show the parent of a compound that is named as a salt.
metric: pIC50

Which pIC50 value is on record for "C[C@@H]1CN([C@@H](C)C2CCNCC2)c2cc(-c3n[nH]c(=O)o3)cc(F)c2O1" ? 8.24

# iterate: O=c1[nH]nc(-c2ccc(Cl)c(N3CCNCC3)c2)o1 [Example 8, hydrochloride] 6.09

I. O=c1[nH]nc(-c2ccc(C(F)(F)F)c(N[C@@H](CF)C3(F)CCNCC3)c2)o1
II. C[C@H](Nc1cc(-c2n[nH]c(=O)o2)ccc1Cl)[C@H]1C[C@@H](N)C1(C)C
Of I and II , whose reported pIC50 is numerically smaller? Output the label that corresponds to your choice. II
(II: 8.00, I: 8.24)
